System: ABUTH
Assay: Herbicidal post-emergence action 1b (twin sowing, 1280 g/ha)
Type: in vivo, Abutilon theophrasti
Details: dosage 1280 g/ha, visual rating about 3 weeks after treatment
Experimental: [table] b) Seeds of mono- and dicotyledonous weed plants are placed in plastic pots in sandy loam soil (twin sowing with one species each of mono- or dicotyledonous weed plants per pot), covered with soil and cultivated in a greenhouse under controlled growth conditions. 2 to 3 weeks after sowing, the test plants are treated at the one-leaf stage. […]
Reported Post-emergence action at 1280 g/ha against ABUTH in % values are given for each entry in this list.
OUTCOME_MEASURE: Post-emergence action at 1280 g/ha against ABUTH in % (%)

COMPOUND: O=C(COc1nn(-c2cnccn2)c(-c2ccc(F)nc2)c1Br)OCc1ccccn1 [Example I-70]
ENDPOINT_RESULT: 100

COMPOUND: O=C(O)COc1nn(-c2nccnc2Cl)c(-c2ccc(F)nc2)c1Br [Example I-73]
ENDPOINT_RESULT: 90

COMPOUND: COC(=O)[C@H](C)Oc1nn(-c2cnccn2)c(-c2ccc(F)nc2)c1Br [Example I-18]
ENDPOINT_RESULT: 90

COMPOUND: COC(=O)[C@@H](C)Oc1nn(-c2cnccn2)c(-c2ccc(F)c(F)c2)c1C#N [Example I-46]
ENDPOINT_RESULT: 90

COMPOUND: N#CCOC(=O)COc1nn(-c2cnccn2)c(-c2ccc(F)nc2)c1Br [Example I-65]
ENDPOINT_RESULT: 90

COMPOUND: COCCOC(=O)COc1nn(-c2cnccn2)c(-c2ccc(F)nc2)c1Br [Example I-68]
ENDPOINT_RESULT: 100

COMPOUND: COC(=O)C(C)Oc1nn(-c2cnccn2)c(-c2ccc(F)c(F)c2)c1Br (racemic) [Example I-16]
ENDPOINT_RESULT: 90

COMPOUND: COC(=O)COc1nn(-c2cnccn2)c(-c2ccc(F)nc2)c1Br [Example I-11]
ENDPOINT_RESULT: 90
